Just for reference, ChEMBL document CHEMBL1147729 is where these values come from.

Experiment: Half life in rat plasma at 3 mg/kg, po
Type: ADME, organism-based
Design: dose 3 mg/kg, route oral
readout_name: half-life (h)
Field: numeric (h). Do not append units.

Ask: Form field: reported half-life of CC(O)(CS(=O)(=O)c1ccc(F)cc1)C(=O)Nc1ccc(C#N)c(C(F)(F)F)c1 (configuration not stated) [BICALUTAMIDE]
Result: 22.3

Ask: What value of half-life has been recorded for this entry: C[C@@H]1CN(c2ccc(C#N)c(C(F)(F)F)c2)[C@@H](C)CN1C(=O)Nc1ccc(C(F)(F)F)nc1 (racemic)
Result: 12.5

* * *

Biological target: Glucocorticoid receptor (Homo sapiens, UniProt P04150)
Sequence (P04150 whole entry): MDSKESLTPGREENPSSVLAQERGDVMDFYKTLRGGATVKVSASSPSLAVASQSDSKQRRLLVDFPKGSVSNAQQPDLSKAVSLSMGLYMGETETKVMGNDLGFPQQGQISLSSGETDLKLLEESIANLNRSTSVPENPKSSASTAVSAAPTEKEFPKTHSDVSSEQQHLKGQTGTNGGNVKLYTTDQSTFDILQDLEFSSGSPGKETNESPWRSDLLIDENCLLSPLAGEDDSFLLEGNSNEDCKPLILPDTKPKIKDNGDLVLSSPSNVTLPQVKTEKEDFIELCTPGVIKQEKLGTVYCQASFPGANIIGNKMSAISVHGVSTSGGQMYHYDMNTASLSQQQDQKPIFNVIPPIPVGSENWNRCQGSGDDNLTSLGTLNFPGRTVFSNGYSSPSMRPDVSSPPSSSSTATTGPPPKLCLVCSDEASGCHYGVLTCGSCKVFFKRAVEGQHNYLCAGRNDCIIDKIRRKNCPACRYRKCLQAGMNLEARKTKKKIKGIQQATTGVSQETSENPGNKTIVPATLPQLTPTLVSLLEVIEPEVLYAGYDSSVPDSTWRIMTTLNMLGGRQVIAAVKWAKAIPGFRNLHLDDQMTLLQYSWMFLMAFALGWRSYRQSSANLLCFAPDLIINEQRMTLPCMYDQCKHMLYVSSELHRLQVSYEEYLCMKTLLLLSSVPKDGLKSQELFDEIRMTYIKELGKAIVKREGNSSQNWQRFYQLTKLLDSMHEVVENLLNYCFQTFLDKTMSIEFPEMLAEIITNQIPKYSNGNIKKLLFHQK
Please respond with reported Ki for every item in the list.

Ask: Could you share what Ki was measured for C[C@@H]1CN(c2ccc(C#N)c(C(F)(F)F)c2)[C@@H](C)CN1C(=O)Nc1ccc(C(F)(F)F)nc1 (racemic) , tested on Glucocorticoid receptor (Homo sapiens, UniProt P04150)?
Result: > 100 µM

Ask: Requested read-out Ki, target or system Glucocorticoid receptor (Homo sapiens, UniProt P04150), entry CC(O)(CS(=O)(=O)c1ccc(F)cc1)C(=O)Nc1ccc(C#N)c(C(F)(F)F)c1 (configuration not stated) [BICALUTAMIDE]
Result: > 100 µM
